B1: library; numbered along this chain (parent)
chain: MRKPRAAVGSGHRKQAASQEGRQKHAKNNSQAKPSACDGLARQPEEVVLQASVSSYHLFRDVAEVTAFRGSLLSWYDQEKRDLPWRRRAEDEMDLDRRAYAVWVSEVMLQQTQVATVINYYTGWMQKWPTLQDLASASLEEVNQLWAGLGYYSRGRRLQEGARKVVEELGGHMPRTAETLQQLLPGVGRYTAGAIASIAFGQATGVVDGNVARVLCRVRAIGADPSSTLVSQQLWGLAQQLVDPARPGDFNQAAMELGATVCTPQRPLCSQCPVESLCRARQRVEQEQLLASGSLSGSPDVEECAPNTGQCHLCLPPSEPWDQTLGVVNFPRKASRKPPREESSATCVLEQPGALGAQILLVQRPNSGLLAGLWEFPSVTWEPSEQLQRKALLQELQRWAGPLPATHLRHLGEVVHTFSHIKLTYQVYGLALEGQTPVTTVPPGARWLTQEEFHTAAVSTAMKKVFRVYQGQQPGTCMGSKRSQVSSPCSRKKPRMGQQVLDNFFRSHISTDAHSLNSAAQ

# Variants of: B1
# PROTOCOL DESCRIPTION: 8OG:A repair function score (normalized; synonymous = 0, nonsense = -1) (normalized log-likelihood score); higher = more repair activity (WT-like);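 note: cells sorted at 72 h after reporter transfection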
# CONDITION SUMMARY: with 8OG:A DNA repair reporter (GFP) in HEK-293 MUTYH KO cells
Tick True if 8OG:A repair function score is -0.2 or greater. Tick False if 8OG:A repair function score is less than -0.2.

# CHANGE, CLASS ASSIGNMENT
measured = [
    ("V301Y", "False"),
    ("E350L", "True"),
    ("L73Q", "False"),
    ("A456E", "False"),
    ("L355Y", "True"),
]

Inquiry: Could you please find out whether `S378D` has 8OG:A repair function score that meets -0.2 or exceeds it?
Reply text: False

Inquiry: Could you please find out whether `M478P` has 8OG:A repair function score that meets -0.2 or exceeds it?
Reply text: True

Inquiry: Could you please find out whether `T476H` has 8OG:A repair function score that meets -0.2 or exceeds it?
Reply text: True

Inquiry: Could you please find out whether `L349P` has 8OG:A repair function score that meets -0.2 or exceeds it?
Reply text: False
